target: human recombinant COX2 (hCOX2); experiment: LCMS-based COX2 enzymatic inhibition assay (PGE2 quantification); format: biochemical; set-up: COX2 2 minutes pge2/pge2d4 area ratio Avg; other: 2 minutes; readout pge2/pge2d4 area ratio; average; COX2 2 minutes pge2/pge2d4 area ratio Avg; LLE; average LLE; COX2 2 minutes pge2 area (counts) Avg; readout pge2 area (counts); other: 2 min; "ovine COX2 (oCOX2), human recombinant COX2 (hCOX2)"; details: 2 minutes; readout pge2 area (counts); average LLE
MEASURED_ENDPOINT: COX2 2 minutes pge2 area (counts) Avg. LLE

Some solved entries appear below for comparison.
COc1ncc(NCc2sccc2C)nc1-c1ccc(S(C)(=O)=O)cc1 [Compound 62] | 4.654
CS(=O)(=O)c1ccc(-c2cncc(SCc3ncco3)n2)cc1 [Compound 217] | 3.522
CS(=O)(=O)c1ccc(-c2cncc(OC[C@H]3CCCO3)n2)cc1 [Compound 252] | 4.054
CS(=O)(=O)c1ccc(-c2cncc(OCc3ccccc3)n2)cc1 [Compound 172] | 4.01
CS(=O)(=O)c1ccc(-c2cncc(SC[C@H]3CCCO3)n2)cc1 (single isomer, unassigned) [Compound 154] | 4.726

P: CS(=O)(=O)c1ccc(-c2cncc(NC[C@@H]3CCCO3)n2)cc1 [Compound 224]
Q: CS(=O)(=O)c1ccc(-c2cccc([S@+]([O-])Cc3cccs3)n2)cc1 [Compound 251]
Query :: Out of P and Q , name the one with the higher COX2 2 minutes pge2 area (counts) Avg. LLE. The response must carry the label of the picked entry.
Result :: P
